B1: HDV Ribozyme (parent)
chain: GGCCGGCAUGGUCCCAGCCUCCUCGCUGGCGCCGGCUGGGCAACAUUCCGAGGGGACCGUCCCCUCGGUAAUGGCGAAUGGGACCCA

- Variants of: B1
- Experiment Description: self-cleavage, relative activity (ratio to wild type); higher = more cleavage; co-transcriptional
Experimental Readout: self-cleavage

Measured self-cleavage, U12C U46A : 0

Record summary for G34C G73U : reported self-cleavage = 0.0627

In plain terms, C33A C44G has a documented self-cleavage of 0.0475

response.value for U12C A16C (field: self-cleavage) = 0.302

The value of self-cleavage measured for the variant G10C A78C turned out to be 0.185

Sure, the documented self-cleavage for G2A G82U is 0.0468

self-cleavage reported for this variant G35A A42C : 0.277
